- study system: T1, SEQ ID NO: 346 glycopeptide with TF-antigen at Thr4 and Thr9
- T1 construct: also called T4^TF/T9^TF
- T1 peptide: HGVT(Galβ1‑3GalNAc)SAPDT(Galβ1‑3GalNAc)RPAPGSTAPP
- test protocol: ELISA on coated glycopeptide, antibody 0.01 mg/ml, mean of 3
Where no end group is shown, it is not given here. Galβ1‑3GalNAc = TF-antigen

{"binder": "M21 (antibody, human IgG1, kappa, V domains shown, Human IgG) VH: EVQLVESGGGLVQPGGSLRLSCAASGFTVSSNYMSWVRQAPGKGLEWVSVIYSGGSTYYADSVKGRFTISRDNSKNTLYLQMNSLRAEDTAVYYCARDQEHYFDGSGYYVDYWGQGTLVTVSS VL: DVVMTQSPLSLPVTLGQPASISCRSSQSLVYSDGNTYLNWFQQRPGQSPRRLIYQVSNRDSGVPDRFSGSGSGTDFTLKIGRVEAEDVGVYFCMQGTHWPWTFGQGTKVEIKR", "ELISA absorbance at 450 nm (absorbance)": 2.2}
{"binder": "M20 (antibody, human IgG1, kappa, V domains shown, Human IgG) VH: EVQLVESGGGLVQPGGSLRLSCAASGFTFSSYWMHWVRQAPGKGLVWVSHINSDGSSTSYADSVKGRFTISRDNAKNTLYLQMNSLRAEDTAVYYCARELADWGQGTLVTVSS VL: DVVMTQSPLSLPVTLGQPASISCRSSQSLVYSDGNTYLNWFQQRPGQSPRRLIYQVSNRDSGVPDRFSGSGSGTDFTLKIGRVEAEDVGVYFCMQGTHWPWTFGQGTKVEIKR", "ELISA absorbance at 450 nm (absorbance)": 1.9}
{"binder": "M3 (antibody, human IgG1, lambda, V domains shown, Human IgG) VH: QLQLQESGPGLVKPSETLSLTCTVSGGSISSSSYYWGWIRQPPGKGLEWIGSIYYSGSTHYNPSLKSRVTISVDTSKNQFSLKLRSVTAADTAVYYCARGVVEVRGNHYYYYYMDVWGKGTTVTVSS VL: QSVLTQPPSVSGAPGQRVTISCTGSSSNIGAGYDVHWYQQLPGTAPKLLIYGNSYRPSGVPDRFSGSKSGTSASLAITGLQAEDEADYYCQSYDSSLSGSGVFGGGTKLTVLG", "ELISA absorbance at 450 nm (absorbance)": 0.1}
{"binder": "M22 (antibody, human IgG1, kappa, V domains shown, Human IgG) VH: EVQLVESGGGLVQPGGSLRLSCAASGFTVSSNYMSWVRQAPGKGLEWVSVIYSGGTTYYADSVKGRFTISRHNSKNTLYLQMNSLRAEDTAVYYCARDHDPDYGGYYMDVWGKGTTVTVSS VL: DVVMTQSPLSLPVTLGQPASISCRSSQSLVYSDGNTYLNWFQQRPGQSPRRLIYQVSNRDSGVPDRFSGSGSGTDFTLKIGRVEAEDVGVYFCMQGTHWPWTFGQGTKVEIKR", "ELISA absorbance at 450 nm (absorbance)": 2.3}
{"binder": "M7 (antibody, human IgG1, kappa, V domains shown, Human IgG) VH: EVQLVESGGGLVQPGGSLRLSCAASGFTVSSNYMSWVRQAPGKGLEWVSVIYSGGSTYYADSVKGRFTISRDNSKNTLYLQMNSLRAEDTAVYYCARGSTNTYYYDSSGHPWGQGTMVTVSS VL: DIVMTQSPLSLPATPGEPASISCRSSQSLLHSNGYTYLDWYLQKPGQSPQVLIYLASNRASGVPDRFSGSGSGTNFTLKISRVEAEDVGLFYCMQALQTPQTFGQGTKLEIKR", "ELISA absorbance at 450 nm (absorbance)": 0.1}
